Data credit: the supplement of paper PMC8728848

Target: Gal(b1-4)GlcNAc(b1-3)GalNAc
Assay: glycan array binding signal (z-score within array); higher = stronger binding
Details: glycan notation: IUPAC condensed, linker removed
This excerpt belongs to a sample that is enriched for the strongest signals.

{"columns": ["binder", "glycan array binding signal (z-score)"],
 "data": [
  ["XTP3-B-MRH1 (Homo sapiens), Q96DZ1 (protein) LLEPLFKQSSCSYRIESYWTYEVCHGKHIRQYHEEKETGQKINIHEYYLGNMLAKNLLFEKEREAEEKEKSNEIPTKNIEGQMTPYYPVGMGNGTPCSLKQNRPRSSTVMYICHPESKHEILSVAEVTTCEYEVVILTPLLCSHPKYRFRA", -0.205],
  ["CPA (Cicer arietinum) (protein) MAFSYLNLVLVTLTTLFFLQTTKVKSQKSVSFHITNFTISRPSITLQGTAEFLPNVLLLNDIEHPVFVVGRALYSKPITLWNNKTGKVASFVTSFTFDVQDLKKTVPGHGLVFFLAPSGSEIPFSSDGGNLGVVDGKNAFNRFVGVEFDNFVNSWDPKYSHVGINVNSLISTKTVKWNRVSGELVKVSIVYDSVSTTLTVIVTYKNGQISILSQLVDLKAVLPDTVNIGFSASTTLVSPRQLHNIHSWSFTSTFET", -0.24],
  ["APVPVTKLVCDGDTYKCTAYLDFGDGRWVAQWDTNVFHTG [PhoSpL (Pholiota squarrosa)]", -0.135],
  ["STA (Solanum tuberosum), Q9S8M0 (protein) NASPPSPSPLPYPQCGMKKGGGKCIKTGECCSIWGWCGTTNAYCSPGYCQKQCPGPYPEGRCGWQANGKSCPTGTGQCCSNGGWCGTTSDYCASKNCQSQCKLPSPPPPPPPPSPPPPSPPSPPPPSPPPPPPPSPPPPSPPPPSPSPPPPPASPPPPPPALPYPQCGIKKGGGKCIKTGECCSIWGWCGTTNAYCSPGYCQKQCPGPYPEGRCGWQANGKSCPTGTGHCCSNAGWCGTTSDYCAPVNCQAQCNTTTLTSPIKNRMRGIESFMLNVV", -0.564],
  ["CLEC-1 (Homo sapiens), Q9NZH3 (protein) MQAKYSSTRDMLDDDGDTTMSLHSQASATTRHPEPRRTEHRAPSSTWRPVALTLLTLCLVLLIGLAAWGLLFFQYYQLSNTGQDTISQMEERLGNTSQELQSLQVQNIKLAGSLQHVAEKLCRELYNKAGAHRCSPCTEQWKWHGDNCYQFYKDSKSWEDCKYFCLSENSTMLKINKQEDLEFAASQSYSEFFYSYWTGLLRPDSGKAWLWMDGTPFTSELFHIIIDVTSPRSRDCVAILNGMIFSKDCKELKRCVCERRAGMVKPESLHVPPETLGEGD", -0.261]
]}
